Items are presented alongside their recorded IC50.
target: PCSK9Δhelix (Homo sapiens, UniProt Q8NBP7); construct: Human PCSK9 construct M1-Q692 with an engineered TEV site (residue deletion Y166, R167); made in house; host or cells: CHO; experiment: PCSK9Δhelix/Ab20 TR-FRET binding assay; settings: TR-FRET; Table 8E, additional compounds; read-out: PCSK9Δhelix/Ab20 IC50
Sequence (Q8NBP7 with tags, fused parts or gaps limits assumed): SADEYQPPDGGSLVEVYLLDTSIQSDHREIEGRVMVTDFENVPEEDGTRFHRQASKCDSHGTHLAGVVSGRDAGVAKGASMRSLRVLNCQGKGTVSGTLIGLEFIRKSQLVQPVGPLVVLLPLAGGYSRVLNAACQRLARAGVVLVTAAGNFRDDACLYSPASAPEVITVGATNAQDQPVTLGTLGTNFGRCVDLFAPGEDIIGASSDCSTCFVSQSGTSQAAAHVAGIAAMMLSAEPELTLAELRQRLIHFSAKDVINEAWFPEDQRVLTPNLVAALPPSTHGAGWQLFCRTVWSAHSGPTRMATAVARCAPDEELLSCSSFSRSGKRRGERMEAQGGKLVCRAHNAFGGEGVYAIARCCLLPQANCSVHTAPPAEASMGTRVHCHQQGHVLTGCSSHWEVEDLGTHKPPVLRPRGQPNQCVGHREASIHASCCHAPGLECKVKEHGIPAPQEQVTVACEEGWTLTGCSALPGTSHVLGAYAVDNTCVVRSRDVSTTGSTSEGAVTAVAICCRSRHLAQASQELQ
Sequence (Q8NBP7 31-152 partner limits assumed): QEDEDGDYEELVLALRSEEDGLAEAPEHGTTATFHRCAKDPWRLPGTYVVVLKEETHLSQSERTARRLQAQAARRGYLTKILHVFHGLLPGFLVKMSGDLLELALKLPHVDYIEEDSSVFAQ
Square brackets hold non-standard residues; d marks the D form. Peptide text beside a SMILES is read from it. * marks the point of attachment. hArg = N=C(N)NCCCC[C@H](N)C(=O)O; Pentanoyl = CCCCC(=O)*; X23 = NC(=O)NCCC(=O)*
Supply the numeric figure in µM, leaving out any unit text.

compound	unit.of.measure	IC50
CC[C@H](C)[C@H](NC(=O)[C@H](CCCNC(=N)N)NC(=O)[C@@H](NC(=O)[C@H](CC(C)C)NC(=O)[C@H](CC(N)=O)NC(=O)[C@H](Cc1c[nH]c2ccccc12)NC(=O)CCNC(N)=O)C(C)C)C(=O)NCC(=O)N[C@@H](CC(C)C)C(=O)N[C@@H](CC(C)C)C(=O)N[C@@H](CCCNC(=N)N)C(N)=O [Compound 141] (X23-WNLVRIGLLR-NH2)	µM	36

// switching to the query compound
Problem: For the compound CCCCC(=O)N[C@@H](Cc1c[nH]c2ccccc12)C(=O)N[C@@H](CC(N)=O)C(=O)N[C@@H](CC(C)C)C(=O)N[C@H](C(=O)N[C@@H](CCCCNC(=N)N)C(=O)N[C@H](C(=O)NCC(=O)N[C@@H](CC(C)C)C(=O)N[C@@H](CC(C)C)C(=O)N[C@@H](CCCNC(=N)N)C(N)=O)[C@@H](C)CC)C(C)C [Compound 191, n-BuC(O)-WNLV(homoR)IGLLR-NH2] (Pentanoyl-WNLV[hArg]IGLLR-NH2) , what IC50 is on record?
Solution: 1.3

====

biological target: PCSK9 (Homo sapiens); assay: PCSK9/EGF(A) TR-FRET binding assay; conditions: TR-FRET; Table 8D, disulfide-cyclized extension peptides; read-out: PCSK9/EGF(A) IC50
Sequence (Q8NBP7 153-692): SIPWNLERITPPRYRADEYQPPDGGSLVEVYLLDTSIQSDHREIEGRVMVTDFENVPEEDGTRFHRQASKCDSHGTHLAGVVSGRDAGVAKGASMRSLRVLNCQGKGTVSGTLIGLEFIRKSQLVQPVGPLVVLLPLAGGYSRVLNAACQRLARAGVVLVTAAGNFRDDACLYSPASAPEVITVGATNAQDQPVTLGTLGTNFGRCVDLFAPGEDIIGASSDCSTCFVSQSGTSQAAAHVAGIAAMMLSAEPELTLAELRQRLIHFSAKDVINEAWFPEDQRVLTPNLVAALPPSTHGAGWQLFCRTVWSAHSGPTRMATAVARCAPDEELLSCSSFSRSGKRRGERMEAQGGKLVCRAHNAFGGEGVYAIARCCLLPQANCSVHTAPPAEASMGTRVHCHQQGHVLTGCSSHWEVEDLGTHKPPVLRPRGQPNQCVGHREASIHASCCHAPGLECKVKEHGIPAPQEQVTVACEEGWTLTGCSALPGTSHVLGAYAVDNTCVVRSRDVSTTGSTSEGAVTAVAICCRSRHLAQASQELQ
Sequence (Q8NBP7 31-152 partner limits assumed): as the sequence (Q8NBP7 31-152 partner limits assumed) above
pIC50: −log10 of the molar value. Bridge positions count the residues as written; N and C are the ends. Square brackets hold non-standard residues; d marks the D form. Peptide text beside a SMILES is read from it.
recorded.metric: pIC50

Problem: Which pIC50 value belongs to CC[C@H](C)[C@@H]1NC(=O)[C@H](CCCNC(=N)N)NC(=O)[C@H](CCC(N)=O)NC(=O)[C@H](CC(C)C)NC(=O)[C@H](CC(N)=O)NC(=O)[C@H](Cc2c[nH]c3ccccc23)NC(=O)[C@@H]2CCCN2C(=O)[C@H](CC(C)C)NC(=O)[C@H](CCCNC(=N)N)NC(=O)[C@@H](NC(C)=O)CSSC[C@@H](C(N)=O)NC(=O)[C@H]2CCCN2C(=O)[C@H](CC(C)C)NC(=O)CNC1=O [Compound 99] (Ac-CRLPWNLQRIGL[dP]C-NH2; disulfide 1-14) ?
Solution: < 4.30

====

Form field: pIC50 (one value per entry).
target: PCSK9 (Homo sapiens); assay: PCSK9 | IC50(uM)
Sequence (Q8NBP7 31-152 limits assumed): as the sequence (Q8NBP7 31-152 partner limits assumed) above
Sequence (Q8NBP7 153-692 limits assumed): as the sequence (Q8NBP7 153-692) above
Ends that are not written are not given here.
The scale used: pIC50 is minus the common logarithm of the concentration in molar units.

> print(dat)
                                  substance  recorded.metric  readout.number
1  SGDLMPWNLVRIGLLR-NH2 [Compound K9gvpep7]            pIC50            6.20

Next:
Problem: Look up pIC50: SGGSMPWNLERIFALH-NH2 [Compound K9gvpep8]
Solution: 5.77
